Attribution: the supplement of paper PMC7156485

- Test system: HCC1569;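 further: TDF denotes transformed human dermal fibroblasts of mesenchymal origin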
- Assay Notes: cell number relative to DMSO (% of DMSO); higher = more cells (less growth inhibition / toxicity)
- Run Parameters: concentration: 10 µM; 24 h
Listed here: items and their measured cell number.
Reported Property: cell number

• Cc1[nH]ccc2c1[nH]c1cc(=O)ccc12.Cl.O.O = 94
• CC(=O)OCC(CCn1cnc2cnc(N)nc21)COC(C)=O = 103
• CCCCCCCCC=CCCCCCCCC(=O)O [9(Z)-Octadecenoic acid] = 104
• CCCCCCCCCCCCCCCC(=O)NCCO [Palmitylethanolamide] = 99.8
• O=c1[nH]ccc2c(S(=O)(=O)N3CCCNCC3)cccc12 = 106
• COc1ccc(Cl)cc1C(=O)NCCc1ccc(S(=O)(=O)NC(=O)NC2CCCCC2)cc1 [Glibenclamide] = 101
• CCOC(=O)Nc1ccc(NCc2ccc(F)cc2)nc1N.O=C(O)C=CC(=O)O [Flupirtine maleate] = 97.3
• Oc1ccc(-c2c(-c3ccccc3)nn3c(C(F)(F)F)cc(C(F)(F)F)nc23)cc1 = 67.9
• Cl.Clc1ccc2nsnc2c1NC1=NCCN1 [Tizanidine.HCl] = 118

* * *

- Test system: TDF;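 further: TDF is a line of transformed human dermal fibroblasts of mesenchymal origin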
- Assay Notes: H1.0 immunofluorescence intensity relative to DMSO (% of DMSO); higher = stronger H1.0 induction, active = 120 or more
- Run Parameters: concentration: 10 µM; 24 h
Given measured H1.0 immunofluorescence intensity, output Condition met if it is greater than or equal to 100 and Condition not met if not.

- COc1ccc(CC2c3cc(OC)c(OC)cc3CC[N+]2(C)CCC(=O)OCCCCCOC(=O)CC[N+]2(C)CCc3cc(OC)c(OC)cc3C2Cc2ccc(OC)c(OC)c2)cc1OC.O=S(=O)([O-])c1ccccc1.O=S(=O)([O-])c1ccccc1 (configuration not stated) [Atracurium besylate]: Condition not met
- O=C(O)/C=C/c1ccc(O)c(O)c1: Condition not met
- O=C(NCCCNc1nc(Nc2cccc(NC(=O)N3CCCC3)c2)ncc1I)c1cccs1: Condition met
- O=c1ccc2ccc(O)c(O)c2o1 [7,8-dihydroxy-2H-chromen-2-one]: Condition not met
- Cn1cc(-c2ccc3nnc(C(F)(F)c4ccc5ncccc5c4)n3n2)cn1: Condition not met
- Cc1ccccc1N1CCN(S(=O)(=O)CC23CCC(CC2NC(=O)C(N)CCS(C)(=O)=O)C3(C)C)CC1.Cl (configuration not stated): Condition not met
- CC12CCC(=O)C=C1CCC1C2C(=O)CC2(C)C1CCC2(O)C(=O)CO (configuration not stated): Condition met

* * *

- System: TDF;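 further: TDF is a line of transformed human dermal fibroblasts of mesenchymal origin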
- Assay Notes: H1.0 immunofluorescence intensity relative to DMSO (% of DMSO); higher = stronger H1.0 induction, active = 120 or more
- Run Parameters: concentration: 10 µM; 24 h
Reported Property: H1.0 immunofluorescence intensity

• O=C(NC(Cc1cc(=O)[nH]c2ccccc12)C(=O)O)c1ccc(Cl)cc1 (stereo not given) [Rebamipide] = 93.2
• CC(C)(C(=O)O)c1ccc(C(O)CCCN2CCC(C(O)(c3ccccc3)c3ccccc3)CC2)cc1.Cl (stereo not given) [Fexofenadine hydrochloride] = 91.2
• COC1C=CC=C(C)C(=O)NC2=CC(=O)C=C(C2=O)C(OC)C(C)CC(OC)C(OC)C(C)C=C(C)C1OC(N)=O (stereo not given) = 88.3
• CC(=O)c1ccc(NC2=C(Cl)C(=O)c3ccccc3C2=O)cc1 = 150
• O=C(c1ccc(OCCN2CCCCC2)cc1)c1c(-c2ccc(O)cc2)sc2cc(O)ccc12 = 102
• CCCCCC=CCC=CCC=CCC=CCCCC(=O)OC(CO)COC(=O)CCCCCCCCCCCCCCCCC (stereo not given) = 98.4
• COc1ccc(C2CNC(=O)C2)cc1OC1CCCC1 (stereo not given) = 91.5
• O=c1c(O)c(-c2ccc(O)cc2)oc2cc(O)cc(O)c12 = 93.5
• CCCCCC=CCC=CC=CC=CC(SCC(NC(=O)CCC(N)C(=O)O)C(=O)NCC(=O)O)C(O)CCCC(=O)O (stereo not given) = 90.1
• CC(C)(C#N)c1ccc(N2C(=O)OCc3cnc4ccc(-c5cnc6ccccc6c5)cc4c32)cc1 = 101
• CCCCCCCCCCCCCC=CC(O)C(N)CO (stereo not given) = 96.9
• COc1cc(-c2oc3cc(O)cc(O)c3c(=O)c2OC2OC(CO)C(O)C(O)C2O)ccc1O (stereo not given) [Isorhamnetine-3-glucoside] = 97.6
• C[N+](C)(C)CCO.[Br-] [Choline bromide] = 96.9
• Cl.c1ccc(C2CN3CCSC3=N2)cc1 (stereo not given) [Tetramisole hydrochloride] = 91.7
• O=[N+]([O-])c1ccc([O-])c(OS(=O)(=O)[O-])c1.[K+].[K+] [dipotassium 5-nitro-2-oxidophenyl sulfate] = 90.9
